From: ChEMBL document CHEMBL1201862

test system: EKVX; assay: NCI tumour cell line growth inhibition, 48 h
Activity calls are given as the source filed them. Rule as the data show it: active = GI50 up to about 1.1 µM and inactive = higher.
Assign GI50 to each entry below.

Example results:
compound: C=CCN1C(=O)/C(=C/c2ccco2)N=C1SC1OC(COC(C)=O)C(OC(C)=O)C(OC(C)=O)C1OC(C)=O (stereo not drawn)
test-target: EKVX
GI50: > 100 µM (inactive)

compound: O=c1oc2ccc3ccccc3c2cc1-c1nnc(-c2ccc([N+](=O)[O-])cc2)[nH]1
test-target: EKVX
GI50: 20.7 µM (inactive)

compound: Nc1ncnc2c1ncn2C1C=C(CO)C(O)C1O (stereo not drawn)
test-target: EKVX
GI50: 25.8 µM (inactive)

compound: CC(C)C1OC2(C)OC(=N)C1(C#N)C(C#N)(C#N)C2C (stereo not drawn)
test-target: EKVX
GI50: 18.7 µM (inactive)

compound: O=C(O)CCS/C(=C\C(SCCC(=O)O)c1ccc(Cl)cc1)c1ccc(Cl)cc1 (stereo not drawn)
test-target: EKVX
GI50: 62.5 µM (inactive)

For every item below, please supply its GI50.
1. O=C(ON=c1c2ccccc2ccc2ccccc12)c1cc([N+](=O)[O-])cc([N+](=O)[O-])c1
2. COc1ccc(-c2c3c(n(C4OC(COC(C)=O)C(OC(C)=O)C(OC(C)=O)C4OC(C)=O)c(=S)c2C#N)CC(C)(C)CC3=O)cc1 (stereo not drawn)
3. CCOC(=O)C(O)(NC(C)=O)C(F)(F)F (stereo not drawn)

Reply |
89.9 µM (inactive)
26.6 µM (inactive)
> 100 µM (inactive)

For every item below, please supply its GI50.
1. CC(C)OCC1CC(CC(=O)Nc2nncs2)C(=O)O1 (stereo not drawn)
2. Nc1ccc(N)c2c1C(=O)c1ccccc1C2=O
3. CC(O)=NC(Cc1ccc2ccccc2c1)C(O)=NC(Cc1ccc(Cl)cc1)C(O)=NC(Cc1c[nH]c2ccccc12)C(O)=NC(CO)C(O)=NC(Cc1ccc(O)cc1)C(O)=NC(CCCN=C(N)N)C(O)=NC(CC(C)C)C(O)=NC(CCCN=C(N)N)C(=O)N1CCCC1C(O)=NC(C)C(=N)O (stereo not drawn)
4. O=C1Oc2cc(O)cc(/C=C/c3ccc(O)cc3)c2[C@@]12c1c(O)cc(O)cc1OC2c1cccc(O)c1 (stereo partly drawn)
5. CC(=O)OCC1OC(N2C(=O)C(=O)c3cc(C)ccc32)C(OC(C)=O)C(OC(C)=O)C1OC(C)=O (stereo not drawn)

Reply |
1: > 100 µM (inactive); 2: 87.5 µM (inactive); 3: 39.5 µM (inactive); 4: 49.3 µM (inactive); 5: > 100 µM (inactive)

For every item below, please supply its GI50.
1. CC12c3ccccc3C(OC=O)(c3ccccc31)C1(C)c3ccccc3C2(OC=O)c2ccccc21
2. C/C(=N\NC(=N)N)C(CN1CCCCC1)C(c1ccccc1)c1c(O)c2ccccc2oc1=O (stereo not drawn)
3. N/C(=N\c1ccc(Cl)cc1)NS(=O)(=O)c1ccc(-c2ccccn2)s1

Reply |
1. > 100 µM (inactive)
2. > 100 µM (inactive)
3. 12.1 µM (inactive)

* * *

Assign GI50 to each entry below.
test system: NCI-H23; experiment: NCI tumour cell line growth inhibition, 48 h
Calls of active or inactive are those of the source. Cut-off read from the data, not from the text of the source: active = GI50 up to about 1.1 µM and inactive = higher.

compound: CCOC(=O)/C(=C/c1ccco1)P(=O)(OCC)OCC
obs-value: > 100 µM (inactive)
//
compound: O=C(O)CCS/C(=C\C(SCCC(=O)O)c1ccc(Cl)cc1)c1ccc(Cl)cc1 (centres undefined)
obs-value: 42.5 µM (inactive)
//
compound: N=S(c1ccccc1[N+](=O)[O-])c1ccccc1[N+](=O)[O-]
obs-value: 3.52 µM (inactive)

For every item below, please supply its GI50.
1. O=C(Cn1ccnc1[N+](=O)[O-])N(CCO)CCO
2. COC(=O)C(C/C=C(\C)c1ccccc1)C(C)=O (centres undefined)
3. O=C(O)CNCCc1ccccc1
4. COc1cc(/C=C2/SC(c3ccccc3)N(c3ccc(NC(C)=O)cc3)C2=O)cc(OC)c1OC (centres undefined)
5. O=C1NC(=O)C(c2c[nH]c3cc(Br)ccc23)=C1c1cn(C(c2ccccc2)(c2ccccc2)c2ccccc2)cn1
6. Cc1cc(Cl)ccc1NC(=O)CCCC(=O)C1CCCC1=O (centres undefined)

Reply |
> 250 µM (inactive)
90.6 µM (inactive)
> 100 µM (inactive)
> 100 µM (inactive)
11.3 µM (inactive)
> 100 µM (inactive)

For every item below, please supply its GI50.
1. COC(=O)C1=C(C(=O)OC)SC2(S1)C1=C(CCC1)SC(C(=O)OC)=C2C(=O)OC
2. CC(=O)c1ccc(OCC(O)CO)cc1 (centres undefined)
3. Nc1ccc(-c2nc3ccccc3s2)cc1

Reply |
18.6 µM (inactive)
> 100 µM (inactive)
18.8 µM (inactive)

For every item below, please supply its GI50.
1. CSC(=N/C=C/c1ccccc1)SC
2. CCOC(=O)CCC1(C(=O)OC)CCCC1=O (centres undefined)
3. c1ccc2c(c1)[nH]c1c2cc[n+]2cc3c(cc12)CCCC3

Reply |
1: > 100 µM (inactive); 2: > 100 µM (inactive); 3: 2.24 µM (inactive)

For every item below, please supply its GI50.
1. O=C(c1ccco1)c1ccccc1C(=O)c1ccco1
2. O=C(CC1(O)C(=O)Nc2ccccc21)c1ccc2ccccc2c1 (centres undefined)
3. CCOP(=O)(OCC)C(C)(CC)N/C(=N\C1=NC(C(F)(F)F)(C(F)(F)F)N=C(C(F)(F)F)O1)NC(NC(C)=O)(C(F)(F)F)C(F)(F)F (centres undefined)
4. CCOC(=O)c1nc2ccc(C(F)(F)F)cc2nc1Oc1ccc(C(=O)OC)cc1
5. NS(=O)(=O)c1nnc(NC(=S)NC(=O)Nc2ccc(Cl)c(Cl)c2)s1
6. CCCCCC(/C=C/[C@@H]1CC(=O)C[C@H]1O[Si](C)(C)C(C)(C)C)OCOCCOC (some centres undefined)
7. CCOC(=O)/C(C(N)=O)=C(O)/C(O)=C(\Br)C(=O)c1ccccc1

Reply |
1: > 100 µM (inactive); 2: > 100 µM (inactive); 3: 18.2 µM (inactive); 4: 97.5 µM (inactive); 5: 18.1 µM (inactive); 6: 3.56 µM (inactive); 7: 18.8 µM (inactive)

* * *

tested on: SF-268; assay: NCI tumour cell line growth inhibition, 48 h
Activity calls are given as the source filed them. No stated cut-off is given here; in the data, active = GI50 up to about 1.1 µM and inactive = higher.
Assign a class; possible classes are active, inactive

Previously resolved entries follow.
compound: CC(C)=CCc1cc2c(cc1O)OC[C@H]1c3cc4c(cc3O[C@@H]21)OCO4
assigned-label: inactive

compound: CC1CCC2C(C)C(=O)OC2C2(C)C(=O)C=CC12 (centres undefined)
assigned-label: inactive

compound: O=c1oc2ccc3ccccc3c2cc1-c1nnc(-c2ccc([N+](=O)[O-])cc2)[nH]1
assigned-label: active

compound: COc1ccc(-c2nc(-c3cnccn3)n(COCCO)n2)cc1
assigned-label: inactive

compound: C/C(=N\O)C1CC2C=C(C#N)C1N(Cc1ccccc1)C2 (centres undefined)
assigned-label: inactive

compound: COC1=C2CC(C)CC(OC)C(O)C(C)/C=C(\C)C(OC(N)=O)C(OC)/C=C\C=C(/C)C(=O)NC(=C(/C=N/N3CCCCC3)C1=O)C2=O (centres undefined)
assigned-label: inactive

compound: Cc1cc(C)nc(NS(=O)(=O)c2ccc(NC(=O)c3cccc4c(Nc5ccc(S(=O)(=O)Nc6nc(C)cc(C)n6)cc5)c5ccc(Cl)cc5nc34)cc2)n1
assigned-label: inactive

compound: CCc1nc(N)c2nc(-c3ccc(C#N)cc3)oc2n1
assigned-label: inactive

Ask | Call for entry CNC(=O)N(CCC#N)CCN(C(=O)NC)c1ccccc1 :
Reply | inactive

* * *

Assign GI50 to each entry below.
system: OVCAR-5; experiment: NCI tumour cell line growth inhibition, 48 h
Active and inactive are the calls of the source. No stated cut-off is given here; in the data, active = GI50 up to about 1.1 µM and inactive = higher.

Example results:
molecule: CN1CCCOC(c2ccc([N+](=O)[O-])cc2)O1 (stereo not given)
GI50: > 100 µM (inactive)
//
molecule: COc1ccccc1NC(=O)C1=C(C)NC(C)=C(C(=O)Nc2ccccc2OC)C1c1cccc2ccccc12
GI50: > 100 µM (inactive)
//
molecule: COc1ccc(N2C(=O)C3c4[nH]c5ccccc5c4C4CCCCCCC4C3C2=O)cc1 (stereo not given)
GI50: > 52.1 µM (inactive)
//
molecule: Cc1ccc(/C=N/NS(=O)(=O)c2ccccc2)c(C)c1
GI50: > 100 µM (inactive)

Here is another molecule to look at.
// GI50 value for O=C(OCCN=C1c2ccccc2CCc2ccccc21)c1ccccc1 : > 100 µM (inactive)

* * *

system: HT-29; experiment: NCI tumour cell line growth inhibition, 48 h
Active and inactive are the calls of the source. Cut-off read from the data, not from the text of the source: active = GI50 up to about 1.1 µM and inactive = higher.
Assign GI50 to each entry below.

Example results:
sample-smiles: CCOP(=O)(C=C=C(C)C)OCC
GI50: > 100 µM (inactive)
//
sample-smiles: C=CCSc1nc2ccccc2c(=O)n1Cc1ccco1
GI50: 50.1 µM (inactive)
//
sample-smiles: CCOC(=O)c1sc2nc(SC)nc3c2c1NCN3C
GI50: > 100 µM (inactive)
//
sample-smiles: CCOC(=O)/C(=C/c1ccco1)P(=O)(OCC)OCC
GI50: > 100 µM (inactive)

For every item below, please supply its GI50.
1. N=c1nc2n(cc1F)[C@@H]1O[C@H](CO)[C@@H](O)[C@@H]1O2
2. Nc1nc(Cl)cc(NCC2(CO)CCCCC2)n1

Reply |
["34.4 µM (inactive)", "> 100 µM (inactive)"]
